# protocol: Plasma protein binding, equilibrium dialysis, human plasma
# Type: in vitro ADME
# cond: undiluted plasma, human plasma protein binding, read-out: PPB (hu) (converted)
measured-property: fraction unbound at 4 h, 100 µM

Example compounds with recorded fraction unbound at 4 h, 100 µM:
O=P(O)(O)CP(=O)(O)OC[C@H]1O[C@@H](n2ccc3c(-c4ccco4)nc(Cl)nc32)[C@H](O)[C@@H]1O
0.098
O=P(O)(O)CP(=O)(O)OC[C@H]1O[C@@H](n2ccc3c(-c4cc5ccccc5o4)ncnc32)[C@H](O)[C@@H]1O
0.019
O=P(O)(O)CP(=O)(O)OC[C@H]1O[C@@H](n2ccc3c(-c4cccc5c4OCCC5)ncnc32)[C@H](O)[C@@H]1O
0.108

# query: fraction unbound at 4 h, 100 µM of entry "O=P(O)(O)CP(=O)(O)OC[C@H]1O[C@@H](n2ccc3c(-c4cc5ccccc5[nH]4)nc(Cl)nc32)[C@H](O)[C@@H]1O"
0.012

What value of fraction unbound at 4 h, 100 µM has been reported for the following compound? "COc1ccc2cc(-c3nc(Cl)nc4c3ccn4[C@@H]3O[C@H](COP(=O)(O)CP(=O)(O)O)[C@@H](O)[C@H]3O)ccc2c1"
≤ 0.01

Report fraction unbound at 4 h, 100 µM for O=P(O)(O)CP(=O)(O)OC[C@H]1O[C@@H](n2ccc3c(-c4cccc5ccccc45)nc(F)nc32)[C@H](O)[C@@H]1O [14D.6] please.
0.033

Reported fraction unbound at 4 h, 100 µM for "CC1(C)Cc2cc(-c3nc(Cl)nc4c3ccn4[C@@H]3O[C@H](COP(=O)(O)CP(=O)(O)O)[C@@H](O)[C@H]3O)ccc2O1" : what is it?
≤ 0.01

What value of fraction unbound at 4 h, 100 µM has been reported for the following compound? "O=P(O)(O)CP(=O)(O)OC[C@H]1O[C@@H](n2ccc3c(-c4ccccc4)ncnc32)[C@H](O)[C@@H]1O"
0.095
